SYSTEM_UNDER_TEST: human Peripheral-type Benzodiazepine Receptor (PBR), TSPO (gene 706) (UniProt P30536)
Sequence (P30536 whole entry, looked up): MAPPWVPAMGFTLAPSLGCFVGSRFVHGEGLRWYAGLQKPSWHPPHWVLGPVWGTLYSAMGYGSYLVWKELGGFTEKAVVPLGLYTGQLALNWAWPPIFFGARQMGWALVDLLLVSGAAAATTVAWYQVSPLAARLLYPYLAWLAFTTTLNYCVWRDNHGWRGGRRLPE
ASSAY_OVERVIEW: NVS_MP_hPBR: NovaScreen (NVS) Membrane Protein Assay for human Peripheral-type Benzodiazepine Receptor (PBR) (AID 2283331);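 also: hits reduce radioligand binding relative to DMSO baseline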
Inconclusive results are not listed. Calls of active or inactive are those of the source. The calls were made as follows: active = hit-call score of the fitted dose curve at least 0.9, where 1 is the maximum; inconclusive = response in the unintended direction; inactive = score below 0.9.
Classes used: active, inactive

| MOLECULE | SYSTEM_UNDER_TEST | CLASSIFICATION |
| --- | --- | --- |
| Cc1oc(-c2ccccc2)nc1CCOc1ccc(C[C@H](Nc2ccccc2C(=O)c2ccccc2)C(=O)O)cc1 | human Peripheral-type Benzodiazepine Receptor (PBR), TSPO (gene 706) (UniProt P30536) | active |
| CC[C@H](c1ccc(O)cc1)[C@@H](CC)c1ccc(O)cc1 | human Peripheral-type Benzodiazepine Receptor (PBR), TSPO (gene 706) (UniProt P30536) | active |
| CCc1ccc(CCOc2ccc(CC3SC(=O)NC3=O)cc2)nc1 (stereo not drawn) | human Peripheral-type Benzodiazepine Receptor (PBR), TSPO (gene 706) (UniProt P30536) | active |
| CC1=C(/C=C/C(C)=C/C=C/C(C)=C/C(=O)O)C(C)(C)CCC1 | human Peripheral-type Benzodiazepine Receptor (PBR), TSPO (gene 706) (UniProt P30536) | active |
| CCCOC(=O)c1ccc(O)cc1 | human Peripheral-type Benzodiazepine Receptor (PBR), TSPO (gene 706) (UniProt P30536) | inactive |
| CCN(CC)CCNc1ccc(CNC=O)c2sc3ccc(OC)cc3c(=O)c12 | human Peripheral-type Benzodiazepine Receptor (PBR), TSPO (gene 706) (UniProt P30536) | active |
| O=C(O)Cc1cc(I)c(Oc2cc(I)c(O)c(I)c2)c(I)c1 | human Peripheral-type Benzodiazepine Receptor (PBR), TSPO (gene 706) (UniProt P30536) | inactive |
| NC(=O)N1C(=O)C(C(=O)c2cc(Cl)cs2)c2cc(F)c(Cl)cc21 (stereo not drawn) | human Peripheral-type Benzodiazepine Receptor (PBR), TSPO (gene 706) (UniProt P30536) | active |

----------
ASSAY_OVERVIEW: CCTE_Shafer_MEA_acute_per_burst_spike_number_mean: CCTE's Neural Acute Assay for Average Number of Spikes Per Burst, Shafer Lab (AID 2284015);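 also: hits are decreases in mean spikes per burst versus baseline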
Calls of active or inactive are those of the source. How the source made its calls: active means hit-call score of the fitted dose curve at least 0.9, where 1 is the maximum; inactive means score below 0.9.
Classes used: TRUE for active, FALSE for inactive

| COMPOUND | CLASSIFICATION |
| --- | --- |
| CC(C)CCCCCCOC(=O)CCCCC(=O)OCCCCCCC(C)C | FALSE |
| CCc1ccc(CCOc2ccc(CC3SC(=O)NC3=O)cc2)nc1 (centres undefined) | FALSE |
| CN(C)C=O | FALSE |
| Oc1cc2ccccc2c2ccccc12 | FALSE |
| CCC(=C(c1ccc(O)cc1)c1ccc(OCCN(C)C)cc1)c1ccccc1 | TRUE |
| CN1CCN(c2ccccc2/C=C2\SCCN(c3ccc(Cl)c(Cl)c3)C2=O)CC1 | FALSE |
| OC1CCC(C2CCCCC2)CC1 (centres undefined) | FALSE |
| CCCOc1sc(C(=O)N2CCC(c3cc(CN)ccc3F)CC2)c(C)c1Br | FALSE |
| CC(C)(C)c1cc(C(C)(C)C)c(O)c(C(C)(C)C)c1 | FALSE |
